Each recorded value in this set is attributed to patent US20230148602A1.

Reported melting point by item:

Which value of melting point has been reported for COCCN(C)C(=O)C(=O)Nc1c(Br)cc(F)c(C(=O)Nc2nnnn2C)c1C in the records?
179 to 181 °C

Which value of melting point has been reported for CC(=O)C(=O)Nc1c(Br)cc(F)c(C(=O)Nc2nnnn2C)c1C in the records?
221 to 223 °C

Which value of melting point has been reported for CCN(CC)C(=O)C(=O)Nc1c(Br)cc(F)c(C(=O)Nc2nnnn2C)c1Cl in the records?
220 to 223 °C

Which value of melting point has been reported for Cc1c(NC(=O)C(=O)N2CCOCC2)c(Br)cc(F)c1C(=O)Nc1nnnn1C in the records?
244 to 246 °C

----------
recorded-metric: melting point

Examples with answers:
smiles	melting point
Cc1c(NC(=O)C(=O)N(C)CC(F)(F)F)cccc1C(=O)Nc1nnnn1C	104 to 107 °C
Cc1c(C(=O)Nc2nnnn2C)ccc(Br)c1NC(=O)C(=O)N(C)CC(F)(F)F	204 to 206 °C
CN(CC(F)(F)F)C(=O)C(=O)Nc1c(Br)cc(F)c(C(=O)Nc2nnnn2C)c1Cl	243 to 246 °C
CCOC(=O)C(=O)Nc1c(Br)cc(F)c(C(=O)Nc2nnnn2C)c1C	154 to 157 °C
Cc1c(NC(=O)C(=O)N(C)C2CC2)c(Br)cc(F)c1C(=O)Nc1nnnn1C	188 to 192 °C

Then this compound:
Which value of melting point has been reported for Cc1c(NC(=O)C(=O)N2CCCC2)c(Br)cc(F)c1C(=O)Nc1nnnn1C in the records?
275 to 278 °C

----------
system: Digitaria ciliaris; assay: Test Example 1 foliage treatment, weed killing rate; type: in vivo; conditions: foliar, 504 h, 250 g/ha active ingredient, foliage spray, after 3 weeks
Reported pest or weed control at 250 g/ha by item:
// units = %; emit number, no label

Examples with answers:
smiles	display-unit	pest or weed control at 250 g/ha
Cc1c(NC(=O)C(=O)N(C)CC(F)(F)F)c(Br)cc(F)c1C(=O)Nc1nnnn1C	%	100
COCCN(C)C(=O)C(=O)Nc1c(Br)cc(F)c(C(=O)Nc2nnnn2C)c1C	%	80
Cc1c(C(=O)Nc2nnnn2C)ccc(Br)c1NC(=O)C(=O)N(C)CC(F)(F)F	%	100
CCN(CC)C(=O)C(=O)Nc1c(Br)cc(F)c(C(=O)Nc2nnnn2C)c1C	%	90
Cc1c(NC(=O)C(=O)N(C)C)c(Br)cc(F)c1C(=O)Nc1nnnn1C	%	100
CCN(C)C(=O)C(=O)Nc1c(Br)cc(F)c(C(=O)Nc2nnnn2C)c1Cl	%	70
CCN(CC)C(=O)C(=O)Nc1c(Br)cc(F)c(C(=O)Nc2nnnn2C)c1Cl	%	70
CCN(C)C(=O)C(=O)Nc1c(Br)cc(F)c(C(=O)Nc2nnnn2C)c1C	%	100

Then this compound:
Which value of pest or weed control at 250 g/ha has been reported for Cc1c(NC(=O)C(=O)N(C)C2CC2)c(Br)cc(F)c1C(=O)Nc1nnnn1C in the records?
80

----------
recorded-metric: melting point

molecule	melting point
CCN(C)C(=O)C(=O)Nc1c(Br)cc(F)c(C(=O)Nc2nnnn2C)c1Cl [A-8]	233 to 235 °C
CON(C)C(=O)C(=O)Nc1c(Br)cc(F)c(C(=O)Nc2nnnn2C)c1C [A-17]	212 to 215 °C
Cc1c(C(=O)Nc2nnnn2C)ccc(C(F)(F)F)c1NC(=O)C(=O)N(C)CC(F)(F)F [A-18]	190 to 193 °C

Which value of melting point has been reported for CCN(CC)C(=O)C(=O)Nc1c(Br)cc(F)c(C(=O)Nc2nnnn2C)c1C [A-13] in the records?
198 to 201 °C

Which value of melting point has been reported for CCN(C)C(=O)C(=O)Nc1c(Br)cc(F)c(C(=O)Nc2nnnn2C)c1C [A-2] in the records?
191 to 194 °C
